ASSAY TARGET: CYP2C9 (Homo sapiens, UniProt P11712)
pIC50: −log10 of the molar value.
PROPERTY: pIC50

In plain terms, O=Cc1ccc(CO)o1 [Compound 5-HMF, 5-hydroxymethylfurfural, reference compound] has a documented pIC50 of < 4.00

###

ASSAY TARGET: CYP1A2 (Homo sapiens)
Sequence (P05177 1-516): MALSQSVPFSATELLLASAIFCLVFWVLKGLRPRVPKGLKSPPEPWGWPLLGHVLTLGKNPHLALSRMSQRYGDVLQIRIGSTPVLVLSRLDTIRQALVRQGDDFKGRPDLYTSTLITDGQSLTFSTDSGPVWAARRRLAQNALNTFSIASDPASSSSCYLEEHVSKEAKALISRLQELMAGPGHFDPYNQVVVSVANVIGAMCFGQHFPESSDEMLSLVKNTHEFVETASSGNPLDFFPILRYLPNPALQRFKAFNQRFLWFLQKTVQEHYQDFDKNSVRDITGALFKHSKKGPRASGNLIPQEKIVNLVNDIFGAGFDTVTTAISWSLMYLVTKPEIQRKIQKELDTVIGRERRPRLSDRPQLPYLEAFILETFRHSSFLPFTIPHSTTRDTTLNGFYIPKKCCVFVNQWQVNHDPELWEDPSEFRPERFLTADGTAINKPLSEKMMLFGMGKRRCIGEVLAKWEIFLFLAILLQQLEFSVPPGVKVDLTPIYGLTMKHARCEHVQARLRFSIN
pIC50: −log10 of the molar value.
PROPERTY: pIC50

Entry O=Cc1ccc(CO)o1 [Compound 5-HMF, 5-hydroxymethylfurfural, reference compound] — recorded pIC50 = < 4.00

###

ASSAY TARGET: Hb (Homo sapiens, UniProt P68871+P69905, E7V)
Construct: Using homozygous sickle (SS) blood from patients; endogenous in cells; host or cells: red blood cells of homozygous SS patient blood (hematocrit 20%); clarified lysates measured after incubation
TEST NAME: Oxygen equilibrium study (P50 shift) of lysates from SS blood, Hemox Analyzer
Format: cell-based
MEASUREMENT PARAMETERS: 0.5 mM; SS RBCs
Give condition met when the value for % Hb-O2 affinity (P50 shift vs DMSO control) is at least 10%. Give condition not met when it is less.

Lookup: Could you please find out whether O=Cc1ccc(C(F)F)o1 [MMA-502, 5-(difluoromethyl)furan-2-carbaldehyde] has % Hb-O2 affinity (P50 shift vs DMSO control) that meets 10% or exceeds it?
Found: condition met

Lookup: Does the reported % Hb-O2 affinity (P50 shift vs DMSO control) for O=Cc1ccc(N2CCC(O)CC2)o1 [MMA-504] fall at or above the 10% mark?
Found: condition not met

Lookup: Say whether N#Cc1ccc(C=O)o1 [MMA-505, 5-formylfuran-2-carbonitrile] shows % Hb-O2 affinity (P50 shift vs DMSO control) of 10% or more.
Found: condition not met

Lookup: % Hb-O2 affinity (P50 shift vs DMSO control) >= 10% for O=Cc1ccc(C2CCCCO2)o1 (centres unmarked) [MMA-509] ?
Found: condition met

Lookup: Reported % Hb-O2 affinity (P50 shift vs DMSO control) reaches at least 10% for O=Cc1ccc(-c2ccn[nH]2)o1 [MMA-503, 5-(1H-pyrazol-5-yl)furan-2-carbaldehyde] ?
Found: condition not met
